# Experimental Details: Times to onset, minimal and maximal, observed in the indexed observations. [column 'DELAI' in source]
# Condition Info: human

[
  {
    "Molecule": "Nc1ccn([C@@H]2O[C@H](CO)[C@@H](O)[C@@H]2O)c(=O)n1",
    "Hepatotoxicity (time to onset)": "1 cure - 2 cures"
  },
  {
    "Molecule": "C1CNCCN1",
    "Hepatotoxicity (time to onset)": "3 weeks - 1 month"
  },
  {
    "Molecule": "O=C1CN(/N=C/c2ccc([N+](=O)[O-])o2)C(=O)N1",
    "Hepatotoxicity (time to onset)": "2 days - 10 years"
  },
  {
    "Molecule": "CC[C@H](C)C(=O)O[C@H]1C[C@H](O)C=C2C=C[C@H](C)[C@H](CC[C@@H](O)C[C@@H](O)CC(=O)O)[C@H]21",
    "Hepatotoxicity (time to onset)": "1 week - 20 weeks"
  },
  {
    "Molecule": "CN(c1nccc(=O)[nH]1)C1CCN(c2nc3ccccc3n2Cc2ccc(F)cc2)CC1",
    "Hepatotoxicity (time to onset)": "2 months"
  },
  {
    "Molecule": "O=c1[nH]c(=O)n(C2CCCO2)cc1F (stereo not given)",
    "Hepatotoxicity (time to onset)": "1.5 months - 9 months"
  },
  {
    "Molecule": "CC(C(=O)O)c1ccc2c(c1)[nH]c1ccc(Cl)cc12 (stereo not given)",
    "Hepatotoxicity (time to onset)": "1 week - 1 month"
  },
  {
    "Molecule": "CC(=O)Oc1ccc(C(=C2CCCCC2)c2ccc(OC(C)=O)cc2)cc1",
    "Hepatotoxicity (time to onset)": "1 month - 5 months"
  },
  {
    "Molecule": "CC1Cc2ccccc2N1NC(=O)c1ccc(Cl)c(S(N)(=O)=O)c1 (stereo not given) [INDAPAMIDE]",
    "Hepatotoxicity (time to onset)": "6 months - 5 years"
  },
  {
    "Molecule": "CCC1=C(C)CN(C(=O)NCCc2ccc(S(=O)(=O)NC(=O)N[C@H]3CC[C@H](C)CC3)cc2)C1=O [GLIMEPIRIDE]",
    "Hepatotoxicity (time to onset)": "2.5 months - 3.3 months"
  },
  {
    "Molecule": "CC1(C)S[C@@H]2[C@H](NC(=O)[C@H](C(=O)O)c3ccsc3)C(=O)N2[C@H]1C(=O)O",
    "Hepatotoxicity (time to onset)": "2 days - 1 week"
  },
  {
    "Molecule": "Nc1c2c(nc3ccccc13)CCCC2",
    "Hepatotoxicity (time to onset)": "1 week - 1.7 years"
  },
  {
    "Molecule": "COc1ccc2cc([C@H](C)C(=O)O)ccc2c1",
    "Hepatotoxicity (time to onset)": "2 days - 2 months"
  },
  {
    "Molecule": "CCNC1=Nc2ccc(Cl)cc2C(C)(c2ccccc2)O1 (stereo not given)",
    "Hepatotoxicity (time to onset)": "11 days"
  },
  {
    "Molecule": "CCOc1nc2cccc(C(=O)O)c2n1Cc1ccc(-c2ccccc2-c2nnn[nH]2)cc1",
    "Hepatotoxicity (time to onset)": "2 weeks - 5.5 months"
  },
  {
    "Molecule": "CNC(=O)OCc1cccc(COC(=O)NC)n1 [PYRICARBATE]",
    "Hepatotoxicity (time to onset)": "2 weeks - 6 months"
  },
  {
    "Molecule": "CC(=O)N[C@H]1[C@@H](O[C@H]2[C@H](O)[C@@H](O)[C@H](O[C@H]3[C@H](CS(=O)(=O)O)[C@@H](OS(=O)(=O)O)[C@@H](O[C@H]4[C@H](O)[C@@H](OS(=O)(=O)O)C(O)O[C@H]4C(=O)O)O[C@@H]3O)O[C@@H]2C(=O)O)O[C@H](COS(=O)(=O)O)[C@@H](O)[C@@H]1O (stereo not given in full) [SODIUM HEPARIN]",
    "Hepatotoxicity (time to onset)": "2 days - 2 weeks"
  },
  {
    "Molecule": "CC(C)Cc1ccc(C(C)C(=O)O)cc1 (stereo not given)",
    "Hepatotoxicity (time to onset)": "1 day - 4 months"
  },
  {
    "Molecule": "Cc1nc2ccc(CN(C)c3ccc(C(=O)N[C@@H](CCC(=O)O)C(=O)O)s3)cc2c(=O)[nH]1",
    "Hepatotoxicity (time to onset)": "2 weeks - 17 weeks"
  },
  {
    "Molecule": "Cl[C@H]1[C@H](Cl)[C@@H](Cl)[C@@H](Cl)[C@H](Cl)[C@H]1Cl",
    "Hepatotoxicity (time to onset)": "3 weeks"
  },
  {
    "Molecule": "Sc1ncnc2nc[nH]c12 [MERCAPTOPURINE ANHYDROUS]",
    "Hepatotoxicity (time to onset)": "2 days - 2 years"
  },
  {
    "Molecule": "O=c1n(CCCN2CCN(c3cccc(Cl)c3)CC2)nc2ccccn12",
    "Hepatotoxicity (time to onset)": "5 days - 18 months"
  },
  {
    "Molecule": "CN1C(C(=O)Nc2ccccn2)=C(O)c2ccccc2S1(=O)=O",
    "Hepatotoxicity (time to onset)": "3 days - 1 year"
  },
  {
    "Molecule": "O=C(COc1ccc(Cl)cc1)N1CCN(Cc2ccc3c(c2)OCO3)CC1 [FIPEXIDE]",
    "Hepatotoxicity (time to onset)": "15 days - 3 months"
  },
  {
    "Molecule": "O=C(NCCN1CCN(c2cccc3c2OC[C@H](CO)O3)CC1)c1ccc(F)cc1",
    "Hepatotoxicity (time to onset)": "6 weeks"
  },
  {
    "Molecule": "O=c1[nH]c(=O)n([C@@H]2O[C@H](CO)[C@@H](O)[C@@H]2F)cc1I",
    "Hepatotoxicity (time to onset)": "9.5 weeks - 4 months"
  },
  {
    "Molecule": "CCN(CC)Cc1cc(Nc2ccnc3cc(Cl)ccc23)ccc1O.Cl",
    "Hepatotoxicity (time to onset)": "1 week - 1 year"
  },
  {
    "Molecule": "CCOc1ccc(NC(C)=O)cc1",
    "Hepatotoxicity (time to onset)": "2 days - 2 years"
  },
  {
    "Molecule": "Fc1ccccc1C1=NCC(=S)N(CC(F)(F)F)c2ccc(Cl)cc21",
    "Hepatotoxicity (time to onset)": "4 weeks"
  },
  {
    "Molecule": "CC(=O)Nc1nnc(S(N)(=O)=O)s1 [ACETAZOLAMIDE]",
    "Hepatotoxicity (time to onset)": "1 month"
  },
  {
    "Molecule": "CC(=O)[C@@]1(O)CC[C@H]2[C@@H]3C[C@H](C)C4=CC(=O)CC[C@]4(C)[C@H]3CC[C@@]21C",
    "Hepatotoxicity (time to onset)": "1 month - 1.7 years"
  },
  {
    "Molecule": "Cc1cnc(C(=O)NCCc2ccc(S(=O)(=O)NC(=O)NC3CCCCC3)cc2)cn1 [GLIPIZIDE]",
    "Hepatotoxicity (time to onset)": "2 days - 5 months"
  },
  {
    "Molecule": "CC(C)NCC(O)c1ccc(NS(C)(=O)=O)cc1 (stereo not given)",
    "Hepatotoxicity (time to onset)": "10 months"
  },
  {
    "Molecule": "CCCCc1nc(Cl)c(CO)n1Cc1ccc(-c2ccccc2-c2nn[nH]n2)cc1",
    "Hepatotoxicity (time to onset)": "2 weeks - 5 months"
  },
  {
    "Molecule": "CCN(CC)C(=O)/C(C#N)=C/c1cc(O)c(O)c([N+](=O)[O-])c1",
    "Hepatotoxicity (time to onset)": "2 weeks - 6 weeks"
  }
]

# credit: ChEMBL document CHEMBL3137667
